Provenance of the data: ChEMBL document CHEMBL2062521

Could you please report measured Ki for the items listed next?
- experimental-system: Nociceptin receptor (Homo sapiens)
- Sequence (P41146 whole entry): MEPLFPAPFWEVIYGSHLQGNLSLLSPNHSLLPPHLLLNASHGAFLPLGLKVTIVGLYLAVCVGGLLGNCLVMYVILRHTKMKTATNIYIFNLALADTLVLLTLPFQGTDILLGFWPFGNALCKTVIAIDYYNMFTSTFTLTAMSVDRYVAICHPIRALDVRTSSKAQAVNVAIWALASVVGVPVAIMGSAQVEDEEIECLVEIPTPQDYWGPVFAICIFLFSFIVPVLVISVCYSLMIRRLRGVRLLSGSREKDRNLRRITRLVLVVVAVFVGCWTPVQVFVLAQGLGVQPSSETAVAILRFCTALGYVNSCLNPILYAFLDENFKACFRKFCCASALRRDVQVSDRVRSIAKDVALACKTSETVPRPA
- measurement-description: Displacement of [3H]N/OFQ from human recombinant ORL1 receptor expressed in HEK293 cells after 45 mins by scintillation proximity assay
- Type: cell-based

Input line: Can you look up the measured Ki of CN(C)C(=O)C1Cc2ccccc2N1C(=O)CCN1CCCC(c2ccccc2)CC1 (racemic) for me?
Output line: > 250 nM

Input line: Can you look up the measured Ki of `CN(C)C(=O)[C@@H]1Cc2ccccc2N1C(=O)CCN1CCC(c2ccccc2)CC1` for me?
Output line: 13.6 nM

Input line: Can you look up the measured Ki of `Cc1cc(F)ccc1C1CCN(CCC(=O)N2c3ccccc3C[C@H]2C(=O)N(C)C)CC1` for me?
Output line: 3.79 nM

Input line: Can you look up the measured Ki of CCCC(C)N1CCN(CCC(=O)N2c3ccccc3CC2C(=O)N(C)C)CC1 (racemic) for me?
Output line: > 250 nM

Input line: Can you look up the measured Ki of CN(C)C(=O)C1Cc2ccccc2N1C(=O)CCN1Cc2ccccc2C1 (racemic) for me?
Output line: > 250 nM

Input line: Can you look up the measured Ki of CN(C)C(=O)[C@@H]1Cc2ccccc2N1C(=O)CCN1CC2CCC(C1)C2c1ccccc1 (some centres undefined) for me?
Output line: > 250 nM

Input line: Can you look up the measured Ki of CN(C)C(=O)C1Cc2ccccc2N1C(=O)CCN1Cc2cccc3cccc(c23)C1 (racemic) for me?
Output line: > 250 nM

Input line: Can you look up the measured Ki of CN(C)C(=O)C1Cc2ccccc2N1C(=O)CCN1CCC(c2ccccc2C(F)(F)F)CC1 (racemic) for me?
Output line: 31.5 nM

Input line: Can you look up the measured Ki of `CN(C)C(=O)[C@@H]1Cc2ccccc2N1C(=O)CCN1CCC(c2ccc(F)cc2)CC1` for me?
Output line: 9.84 nM

Input line: Can you look up the measured Ki of CN(C)C(=O)C1Cc2ccccc2N1C(=O)CCN1CC[C@@H]2c3ccccc3CC[C@@H]2C1 (mixture of isomers) for me?
Output line: > 250 nM

Input line: Can you look up the measured Ki of Cc1cccc(N2CCN(CCC(=O)N3c4ccccc4CC3C(=O)N(C)C)CC2)c1 (racemic) for me?
Output line: > 250 nM

Input line: Can you look up the measured Ki of CN(C)C(=O)C1Cc2ccccc2N1C(=O)CCN1CCN(c2cnccn2)CC1 (racemic) for me?
Output line: > 250 nM

Input line: Can you look up the measured Ki of CN(C)C(=O)C1Cc2ccccc2N1C(=O)CCN1CCC(C2CCCCC2)CC1 (racemic) for me?
Output line: 286 nM

Input line: Can you look up the measured Ki of CN(C)C(=O)C1Cc2ccccc2N1C(=O)CCN1CCC(c2ccccn2)CC1 (racemic) for me?
Output line: > 250 nM
